Known log10(GI50) of a selection of molecules
experiment: Concentration required to inhibit the growth of human Renal SN12C cells; type: functional
log10 GI50, µM

Some molecules with known log10(GI50) results, for comparison:
[[record]]
structure_smiles_string = "c1c2c(cc3c1OCO3)-c1ncc3cc4c(cc3c1C2)OCO4"
observed = -1.38

[[record]]
structure_smiles_string = "COc1cc2c(c(OC)c1OC)-c1ncc3c(OC)c(OC)c(OC)cc3c1C2"
observed = 1.31

[[record]]
structure_smiles_string = "COc1cc2c3c(n(C)c(=O)c2cc1OC)-c1cc2c(cc1C3=O)OCO2"
observed = 1.83

[[record]]
structure_smiles_string = "COc1cc2cnc3c(c2c(OC)c1OC)Cc1cc2c(cc1-3)OCO2"
observed = -0.22

[[record]]
structure_smiles_string = "COc1cc2c(c(OC)c1OC)-c1ncc3cc(OC)c(OC)c(OC)c3c1C2"
observed = 1.25


Exercise: Input COc1cc2c(cc1OC)-c1ncc3cc(OC)c(OC)c(OC)c3c1C2 , output reported log10(GI50).
Key: 1.16

Exercise: Supply log10(GI50) value. Item: COc1cc2c(c(OC)c1OC)-c1ncc3cc4c(cc3c1C2)OCO4
Key: 1.13

Exercise: Provide only the value of recorded log10(GI50) for COc1cc2c(cc1OC)-c1ncc3c(OC)ccc(OC)c3c1C2
Key: 1.17
